Source of measurements: ChEMBL document CHEMBL1130551

- SYSTEM NAME: Progesterone receptor (Oryctolagus cuniculus, UniProt P06186)
- Sequence (P06186 whole entry): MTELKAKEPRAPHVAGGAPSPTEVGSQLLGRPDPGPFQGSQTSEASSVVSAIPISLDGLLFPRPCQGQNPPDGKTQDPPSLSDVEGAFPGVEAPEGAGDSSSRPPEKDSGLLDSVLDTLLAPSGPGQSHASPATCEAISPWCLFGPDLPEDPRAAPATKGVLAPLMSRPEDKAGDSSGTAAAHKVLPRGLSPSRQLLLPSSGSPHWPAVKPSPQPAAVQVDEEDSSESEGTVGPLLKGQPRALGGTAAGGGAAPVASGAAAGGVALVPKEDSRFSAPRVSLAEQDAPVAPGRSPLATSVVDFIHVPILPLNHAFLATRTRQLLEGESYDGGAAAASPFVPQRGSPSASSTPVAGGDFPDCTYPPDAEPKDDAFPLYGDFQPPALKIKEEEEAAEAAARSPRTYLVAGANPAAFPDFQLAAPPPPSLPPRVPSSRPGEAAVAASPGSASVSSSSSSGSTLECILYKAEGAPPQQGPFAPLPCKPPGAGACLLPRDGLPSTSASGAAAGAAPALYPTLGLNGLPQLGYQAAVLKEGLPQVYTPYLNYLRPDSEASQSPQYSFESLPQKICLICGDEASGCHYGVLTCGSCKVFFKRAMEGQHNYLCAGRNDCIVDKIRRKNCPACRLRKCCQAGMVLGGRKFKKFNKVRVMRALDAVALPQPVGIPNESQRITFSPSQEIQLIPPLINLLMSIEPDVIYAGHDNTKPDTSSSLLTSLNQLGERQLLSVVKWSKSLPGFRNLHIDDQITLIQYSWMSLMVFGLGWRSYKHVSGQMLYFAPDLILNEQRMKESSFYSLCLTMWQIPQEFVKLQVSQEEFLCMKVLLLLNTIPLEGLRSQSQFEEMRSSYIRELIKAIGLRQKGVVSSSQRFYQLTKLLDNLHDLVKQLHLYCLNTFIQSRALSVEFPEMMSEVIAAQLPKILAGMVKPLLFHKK
- EXPERIMENT NOTES: Binding affinity determined by ability to displace [3H]R5020 radioligand using uterine progesterone receptor obtained from estrogen-primed rabbit
Recorded pIC50, one value per entry.
# pIC50 is unitless: minus log10 of the molar concentration; print number only

GET pIC50 where system = Progesterone receptor (Oryctolagus cuniculus, UniProt P06186) and item = CCCCOC(=O)c1ccc(-n2nc(C=O)c3c2C(Cc2cccc4ccccc24)CCC3)cc1 (stereo unspecified)
6.07

GET pIC50 where system = Progesterone receptor (Oryctolagus cuniculus, UniProt P06186) and item = CC(O)c1nn(-c2ccc(F)cc2)c2c1CCCC2Cc1cccc2ccccc12 (stereo unspecified)
6.63

GET pIC50 where system = Progesterone receptor (Oryctolagus cuniculus, UniProt P06186) and item = Fc1ccc(-n2nc(CNCc3ccccc3)c3c2C(Cc2cccc4ccccc24)CCC3)cc1 (stereo unspecified)
5.86

GET pIC50 where system = Progesterone receptor (Oryctolagus cuniculus, UniProt P06186) and item = CCN(CC)C(=O)c1nn(-c2ccc(F)cc2)c2c1CCCC2Cc1cccc2ccccc12 (stereo unspecified)
5.52

GET pIC50 where system = Progesterone receptor (Oryctolagus cuniculus, UniProt P06186) and item = CCOC(=O)OCc1nn(-c2ccc(F)cc2)c2c1CCCC2Cc1cccc2ccccc12 (stereo unspecified)
7.05

GET pIC50 where system = Progesterone receptor (Oryctolagus cuniculus, UniProt P06186) and item = CCC(=O)c1nn(-c2ccc(F)cc2)c2c1CCCC2Cc1cccc2ccccc12 (stereo unspecified)
6.00

GET pIC50 where system = Progesterone receptor (Oryctolagus cuniculus, UniProt P06186) and item = COc1ccc(CC2CCCc3c(C=O)nn(-c4ccc(F)cc4)c32)cc1OC (stereo unspecified)
5.72

GET pIC50 where system = Progesterone receptor (Oryctolagus cuniculus, UniProt P06186) and item = COc1cccc(CC2CCCc3c(C=O)nn(-c4ccc(F)cc4)c32)c1 (stereo unspecified)
7.77

GET pIC50 where system = Progesterone receptor (Oryctolagus cuniculus, UniProt P06186) and item = COC(=O)Nc1nn(-c2ccc(F)cc2)c2c1CCCC2Cc1cccc2ccccc12 (stereo unspecified)
5.80

GET pIC50 where system = Progesterone receptor (Oryctolagus cuniculus, UniProt P06186) and item = Cc1ccc(CC2CCCc3c(C=O)nn(-c4ccc(F)cc4)c32)cc1 (stereo unspecified)
8.11

GET pIC50 where system = Progesterone receptor (Oryctolagus cuniculus, UniProt P06186) and item = O=Cc1nn(-c2ccc(F)cc2)c2c1CCCC2Cc1ccc(Cl)cc1 (stereo unspecified)
7.92
